Test: Solvent solubility screen for Compound 1
Format: physicochemical
Conditions: thermodynamic from solid; Water; crystalline Compound 1 (Form 1); read-out: Approximate Solubility
Experimental endpoint: solubility

Please give the measured solubility for this molecule: O=C(OC(C(F)(F)F)C(F)(F)F)N1CCN(Cc2ccc(C(F)(F)F)cc2N2CCCC2)CC1
< 5000 µg/mL

====

Assay: Solvent solubility screen for Compound 1
Format: physicochemical
Conditions: organic solvent or mixture, thermodynamic from solid; 2-Ethoxyethanol; crystalline Compound 1 (Form 1); read-out: Approximate Solubility
Experimental endpoint: solubility (mg/mL)
One number for each entry, in mg/mL.

Please give the measured solubility for this compound: O=C(OC(C(F)(F)F)C(F)(F)F)N1CCN(Cc2ccc(C(F)(F)F)cc2N2CCCC2)CC1
103

====

Assay: Solvent solubility screen for Compound 2
Type: physicochemical
Conditions: 40 °C, aqueous with cosolvent or surfactant or cyclodextrin, thermodynamic from solid; Acetone:water (50%); amorphous HCl salt; partial dissolution; read-out: Approximate Solubility
Experimental endpoint: solubility

Please give the measured solubility for this molecule: Cl.O=C(OC(C(F)(F)F)C(F)(F)F)N1CCN(Cc2ccc(C(F)(F)F)cc2N2CCCC2)CC1 [Compound 2]
< 5000 µg/mL

====

Assay: Solvent solubility screen for Compound 1
Format: physicochemical
Conditions: organic solvent or mixture, thermodynamic from solid; Methanol; crystalline Compound 1 (Form 1); read-out: Approximate Solubility
Experimental endpoint: solubility

Please give the measured solubility for this compound: O=C(OC(C(F)(F)F)C(F)(F)F)N1CCN(Cc2ccc(C(F)(F)F)cc2N2CCCC2)CC1 [Compound 1]
72 mg/mL

====

Assay: Solvent solubility screen for Compound 1
Type: physicochemical
Conditions: organic solvent or mixture, thermodynamic from solid; Heptane; crystalline Compound 1 (Form 1); read-out: Approximate Solubility
Experimental endpoint: solubility (mg/mL)
Answers are plain numbers, in mg/mL.

Please give the measured solubility for this compound: O=C(OC(C(F)(F)F)C(F)(F)F)N1CCN(Cc2ccc(C(F)(F)F)cc2N2CCCC2)CC1
49

====

Assay: Solvent solubility screen for Compound 2
Type: physicochemical
Conditions: 40 °C, organic solvent or mixture, thermodynamic from solid; 1-Butanol; amorphous HCl salt; read-out: Approximate Solubility
Experimental: Approximately 10 mg of amorphous HCl salt (from 500 mg batch) was placed in each of 28 vials and 5 volume aliquots of the appropriate solvent systems were added to the appropriate vial. Between each addition, the mixture was checked for dissolution and if no dissolution was apparent, the mixture was heated to ca. 40° C. and checked again. […] If 200 volumes of solvent were added without dissolution of the material, solubility was calculated to be below this point.
Experimental endpoint: solubility

Please give the measured solubility for this molecule: Cl.O=C(OC(C(F)(F)F)C(F)(F)F)N1CCN(Cc2ccc(C(F)(F)F)cc2N2CCCC2)CC1 [Compound 2]
< 5000 µg/mL

====

Test: Solvent solubility screen for Compound 1
Type: physicochemical
Conditions: organic solvent or mixture, thermodynamic from solid; Benzonitrile; crystalline Compound 1 (Form 1); read-out: Approximate Solubility
Experimental endpoint: solubility

Please give the measured solubility for this molecule: O=C(OC(C(F)(F)F)C(F)(F)F)N1CCN(Cc2ccc(C(F)(F)F)cc2N2CCCC2)CC1
> 214 mg/mL

====

Test: Solvent solubility screen for Compound 1
Assay type: physicochemical
Details: organic solvent or mixture, thermodynamic from solid; Tetrahydrofuran; crystalline Compound 1 (Form 1); read-out: Approximate Solubility
Experimental endpoint: solubility

Please give the measured solubility for this molecule: O=C(OC(C(F)(F)F)C(F)(F)F)N1CCN(Cc2ccc(C(F)(F)F)cc2N2CCCC2)CC1
> 198 mg/mL

====

Assay: Solvent solubility screen for Compound 2
Format: physicochemical
Conditions: 40 °C, aqueous with cosolvent or surfactant or cyclodextrin, thermodynamic from solid; 2-Propanol:water (50%); amorphous HCl salt; partial dissolution; read-out: Approximate Solubility
Experimental endpoint: solubility

Please give the measured solubility for this compound: Cl.O=C(OC(C(F)(F)F)C(F)(F)F)N1CCN(Cc2ccc(C(F)(F)F)cc2N2CCCC2)CC1
< 5000 µg/mL

====

Experiment: Solvent solubility screen for Compound 2
Format: physicochemical
Conditions: 40 °C, organic solvent or mixture, thermodynamic from solid; 2-Propanol; amorphous HCl salt; read-out: Approximate Solubility
Procedure: Approximately 10 mg of amorphous HCl salt (from 500 mg batch) was placed in each of 28 vials and 5 volume aliquots of the appropriate solvent systems were added to the appropriate vial. Between each addition, the mixture was checked for dissolution and if no dissolution was apparent, the mixture was heated to ca. 40° C. and checked again. […] If 200 volumes of solvent were added without dissolution of the material, solubility was calculated to be below this point.
Experimental endpoint: solubility (µg/mL)
Give bare numbers, in µg/mL.

Please give the measured solubility for this molecule: Cl.O=C(OC(C(F)(F)F)C(F)(F)F)N1CCN(Cc2ccc(C(F)(F)F)cc2N2CCCC2)CC1
5000

====

Test: Solvent solubility screen for Compound 2
Type: physicochemical
Conditions: 40 °C, organic solvent or mixture, thermodynamic from solid; Ethanol; amorphous HCl salt; read-out: Approximate Solubility
Experimental endpoint: solubility (mg/mL)
Numbers only, in mg/mL.

Please give the measured solubility for this compound: Cl.O=C(OC(C(F)(F)F)C(F)(F)F)N1CCN(Cc2ccc(C(F)(F)F)cc2N2CCCC2)CC1
33
